A collection of compounds and their measured GI50
System: ACHN
measurement notes: NCI tumour cell line growth inhibition, 48 h
Activity calls are given as the source filed them. No stated cut-off is given here; in the data, active = GI50 up to about 1.1 µM and inactive = higher. Where a SMILES comes first, the peptide text is derived from it. Bridges are numbered along the chain shown (N, C = ends). [ ]: non-standard residue; d: D form. The star is where a group is joined. ξ: configuration not given here. X28 = O=C(/C=C/C=C/C=C/C=C/C=C/C(=O)*)NC1=C(O)CCC1=O; NMeA = CN[C@@H](C)C(=O)O; ξF = NC(Cc1ccccc1)C(=O)O; ξA = CC(N)C(=O)O
property label: GI50

{"compound": "C=CCNC(=S)N/C=C(\\C#N)C(N)=O", "property label": "GI50", "reported value": "> 100 µM (inactive)"}
{"compound": "c1ccc(-c2cc(C3CO3)c3ccccc3n2)cc1 (centres undefined)", "property label": "GI50", "reported value": "18.4 µM (inactive)"}
{"compound": "CC(C)(Cc1ccccc1)NC1=NCCO1", "property label": "GI50", "reported value": "> 100 µM (inactive)"}
{"compound": "Cc1c(C(=O)Nc2ccc(Cl)cc2)nc(N)nc1-c1cccc(Cl)c1", "property label": "GI50", "reported value": "> 100 µM (inactive)"}
{"compound": "CN(C)CCNC(=O)c1cccc2c(Nc3ccc(S(=O)(=O)N=C(N)N)cc3)c3ccccc3nc12", "property label": "GI50", "reported value": "22.1 µM (inactive)"}
{"compound": "N#CC(C(=N/O)/C(=N/O)C(C#N)c1ccc(Cl)cc1)c1ccc(Cl)cc1 (centres undefined)", "property label": "GI50", "reported value": "> 100 µM (inactive)"}
{"compound": "O=C1/C(=C/c2cccs2)NC(=S)N1CN1CCCCC1", "property label": "GI50", "reported value": "42.6 µM (inactive)"}
{"compound": "CC1NC(=O)[C@H](C)N(C)C(=O)[C@@H]2CCCN2C(=O)[C@@H](NC(=O)C(Cc2ccccc2)NC(=O)/C=C/C=C/C=C/C=C/C=C/C(=O)NC2=C(O)CCC2=O)COC(=O)[C@@H]2CCCN2C1=O (some centres undefined) (X28-[ξF]SP[NMeA][ξA]P; ester 2-C)", "property label": "GI50", "reported value": "> 100 µM (inactive)"}
{"compound": "CCCCOCCOC1=CC(=O)c2c(O)ccc(O)c2C1=O", "property label": "GI50", "reported value": "1.72 µM (inactive)"}
{"compound": "C=CCP(=O)(CC=C)C(Cl)Cl", "property label": "GI50", "reported value": "> 100 µM (inactive)"}
{"compound": "CCOC(=O)CCn1cnc(N)n1", "property label": "GI50", "reported value": "> 100 µM (inactive)"}
{"compound": "N#Cc1c(N2CCCC2)nsc1Nc1ccc(F)cc1", "property label": "GI50", "reported value": "> 100 µM (inactive)"}
{"compound": "COc1cccc(C2CC(=O)c3cccn32)c1 (centres undefined)", "property label": "GI50", "reported value": "> 100 µM (inactive)"}
{"compound": "CC(=O)NCCC1CN(C(=O)/C=C\\I)c2ccccc21 (centres undefined)", "property label": "GI50", "reported value": "14.5 µM (inactive)"}
